- Test Name: Aqueous solubility in PBS
- Type: physicochemical
Catalogue of Sol. readings, one per entry.

Compound: Cc1cccc(F)c1-c1nc(CN2CCC(C(=O)NCCCN3C[C@H](C)C[C@H](C)C3)CC2)c(C)o1 [Compound 46]
Sol.: >72.0 µg/mL
//
Compound: Cc1ccccc1-c1nc(CN2CCC(C(=O)NCCCN3C[C@H](C)C[C@H](C)C3)CC2)c(C)o1 [Compound 3]
Sol.: 53.9 µg/mL
//
Compound: COc1cccc(C)c1-c1nc(CN2CCC(C(=O)NCCCN3C[C@H](C)C[C@H](C)C3)CC2)c(C)o1 [Compound 45]
Sol.: >73.0 µg/mL
//
Compound: COc1cccc(OC)c1-c1nc(CN2CCC(C(=O)NCCCN3C[C@H](C)C[C@H](C)C3)CC2)c(C)o1 [Compound 37]
Sol.: >76.0 µg/mL
//
Compound: Cc1cc(-c2nc(CN3CCC(C(=O)NCCCN4CCC(C(C)C)CC4)CC3)co2)ccc1F [Compound 71]
Sol.: >72 µg/mL
//
Compound: Cc1oc(-c2cccc(Cl)c2)nc1CN1CCC(C(=O)NCCCN2C[C@H](C)C[C@H](C)C2)CC1 [Compound 24]
Sol.: >72.0 µg/mL
//
Compound: Cc1oc(-c2c(F)cccc2Cl)nc1CN1CCC(C(=O)NCCCN2C[C@H](C)C[C@H](C)C2)CC1 [Compound 33]
Sol.: >75.0 µg/mL
//
Compound: Cc1oc(-c2cccc3ccccc23)nc1CN1CCC(C(=O)NCCCN2C[C@H](C)C[C@H](C)C2)CC1 [Compound 31]
Sol.: >74.0 µg/mL
//
Compound: Cc1ccccc1-c1nc(CN2CCC(C(=O)NCCCN3CCCC(C)C3)CC2)c(C)o1 (stereo not shown) [Compound 6]
Sol.: >67.0 µg/mL
//
Compound: Cc1ccc(-c2nc(CN3CCC(C(=O)NCCCN4C[C@H](C)C[C@H](C)C4)CC3)c(C)o2)cc1 [Compound 19]
Sol.: >69.0 µg/mL
//
Compound: Cc1ccccc1-c1nc(CN2CCC(C(=O)NCCCN3CC4CCCC(C4)C3)CC2)c(C)o1 [Compound 54]
Sol.: > .71 µg/mL
//
Compound: Cc1ccccc1-c1nc(CN2CCC(C(=O)NCCCN3C[C@H](C)C[C@H](C)C3)CC2)c(C)s1 [Compound 65]
Sol.: >71.0 µg/mL
//
Compound: Cc1oc(-c2ccccc2Cl)nc1CN1CCC(C(=O)NCCCN2C[C@H](C)C[C@H](C)C2)CC1 [Compound 15]
Sol.: >72.0 µg/mL
